# merged literature set: pIC50 with Tyrosine-protein kinase receptor UFO (Homo sapiens)
pIC50: −log10 of the molar value.

# count of solved cases: 10
>>> test_value("COC[C@H](C)Nc1ncc2c(-c3ccc(CC(=O)O)cc3)cc([C@H]3CC[C@H](O)CC3)n2n1")
"≥ 7.00"
>>> test_value("COCCN1CCC(Oc2ncc([C@H]3CC[C@H](O)CC3)c3nc(N[C@@H](C)CC(F)(F)F)ncc23)CC1")
"6.00 to 7.00"
>>> test_value("COC[C@H](C)Nc1ncc2c(-c3cnn(C4COC4)c3)cc(-c3ccc(O)nc3)n2n1")
"6.00 to 7.00"
>>> test_value("COC[C@H](C)Nc1ncc2c(-c3cncc(C(=O)N4CCN(C)CC4)c3)cc([C@H]3CC[C@H](O)CC3)n2n1")
"6.00 to 7.00"
>>> test_value("O[C@H]1CC[C@H](c2cnc(OC3CCNCC3)c3cnc(N[C@@H]4CCOC4)nc32)CC1")
"6.00 to 7.00"
>>> test_value("COC[C@H](C)Nc1ncc2c(O[C@H]3CCNCC3(F)F)ncc([C@H]3CC[C@H](O)CC3)c2n1")
"5.00 to 6.00"
>>> test_value("Nc1ncc(-c2cnn(C3CCNCC3)c2)cc1-c1nnc(-c2cccnc2)o1")
"> 6.30"
>>> test_value("COc1cc2nccc(Oc3ccc(NC(=O)c4cc5ccncc5n(-c5ccccc5)c4=O)nc3)c2cc1OC")
8.89
>>> test_value("COCCOc1nc(Nc2ccc(CN3CCN(C)CC3)cc2)nc2[nH]cc(-c3ccc(OCc4cccnc4)cc3F)c12")
"> 7.52"
>>> test_value("CCCCNc1ncc2c(n1)N([C@H]1CC[C@H](O)CC1)Cc1cc(CNC3CCCCC3)ccc1-2")
"> 7.00"

What value of measured pIC50 is listed for COC[C@H](C)Nc1ncc2c(-c3cnn(C(C)(C)c4nnc(C)o4)c3)cc([C@H]3CC[C@H](O)CC3)n2n1 ?
≥ 7.00

Dear colleague, I am looking for the recorded pIC50 of the following compound: CC[C@H](C)Nc1ncc2c(OCC34CCC(O)(CC3)CC4)ncc([C@H]3CC[C@H](O)CC3)c2n1
5.00 to 6.00

I am curious: what pIC50 value has been reported for COC[C@H](C)Nc1ncc2c(-c3ccnc(O[C@H]4CCN(C)C4)c3)cc([C@H]3CC[C@H](O)CC3)n2n1 ?
≥ 7.00

I am curious: what pIC50 value has been reported for O[C@H]1CC[C@H](c2cnc(OC3CCOCC3)c3cnc(NC4CCCC4)nc32)CC1 ?
≥ 7.00

Please report the recorded pIC50 for COC[C@H](C)Nc1ncc2c(-c3cccc(CN4CC[C@@H](F)C4)c3)cc([C@H]3CC[C@H](O)CC3)n2n1 .
6.00 to 7.00
